tested on: hBCAT1 (Homo sapiens)
Sequence (P54687 whole entry): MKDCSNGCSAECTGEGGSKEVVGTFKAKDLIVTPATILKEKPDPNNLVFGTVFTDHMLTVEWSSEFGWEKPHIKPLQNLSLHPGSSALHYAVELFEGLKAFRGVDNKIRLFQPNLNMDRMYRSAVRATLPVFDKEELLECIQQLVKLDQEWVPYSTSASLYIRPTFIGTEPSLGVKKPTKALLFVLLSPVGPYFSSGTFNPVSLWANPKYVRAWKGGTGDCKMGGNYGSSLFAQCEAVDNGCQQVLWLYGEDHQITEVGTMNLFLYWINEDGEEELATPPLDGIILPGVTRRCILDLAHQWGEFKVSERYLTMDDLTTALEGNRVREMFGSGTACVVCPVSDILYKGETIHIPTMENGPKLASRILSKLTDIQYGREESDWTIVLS
Each item that follows carries a reported IC50.

CNC(=O)c1cc2nc(-c3ccccn3)n(C3CC(NC(=O)c4ccc(Br)s4)CN(C)C3)c2cc1OC (centres unmarked) :: > 5000 nM
CO[C@H]1C[C@H](NC(=O)c2ncc(Cl)s2)C[C@H](n2c(-c3ccccc3F)nc3cnc(N4CCC[C@H]4CO)cc32)C1 :: 500 to 1000 nM
Cc1nc2cnc(-n3nccn3)cc2n1[C@@H]1CCC[C@H](NC(=O)c2ccc(Br)s2)C1 :: > 5000 nM
O=C(NC1CCCC(n2c(-c3ccccn3)nc3cc(-c4ncon4)ncc32)C1)c1ccc(Br)s1 (centres unmarked) :: 1000 to 5000 nM
O=C(N[C@H]1CCC[C@@H](n2c(-c3ccccc3F)nc3cnc(-c4ccc(F)cn4)cc32)C1)c1ncc(Cl)s1 :: < 500 nM

Q: Value wanted: IC50 (hBCAT1 (Homo sapiens)) of entry Cc1coc(-c2cc3c(cn2)nc(-c2ccccc2F)n3[C@@H]2CCC[C@H](NC(=O)c3ncc(Cl)s3)[C@H]2O)n1
Ans: < 500 nM

Q: Value wanted: IC50 (hBCAT1 (Homo sapiens)) of entry O=C(N[C@H]1CCC[C@@H](n2c(C3COCCO3)nc3cnc(-c4nc[nH]n4)cc32)C1)c1ncc(Cl)s1 (single isomer, unassigned)
Ans: 1000 to 5000 nM

Q: Value wanted: IC50 (hBCAT1 (Homo sapiens)) of entry O=C(N[C@H]1CCC[C@@H](n2c(-c3ncccc3F)nc3cnc(-c4ccn[nH]4)cc32)C1)c1ccc(Cl)s1
Ans: < 500 nM

Q: Value wanted: IC50 (hBCAT1 (Homo sapiens)) of entry O=C(N[C@H]1CCC[C@@H](n2c(-c3ccccn3)nc3cnc(-c4nn[nH]n4)cc32)C1)c1ncc(C(F)F)s1
Ans: < 500 nM

Q: Value wanted: IC50 (hBCAT1 (Homo sapiens)) of entry COc1cccc(F)c1-c1nc2cnc(-c3nc[nH]n3)cc2n1[C@@H]1CCCC[C@H](NC(=O)c2ccc(Cl)s2)[C@H]1O
Ans: < 500 nM

Q: Value wanted: IC50 (hBCAT1 (Homo sapiens)) of entry O=C(N[C@H]1CCC[C@@H](n2c(Nc3ccccc3)nc3cnc(-n4nccn4)cc32)C1)c1ncc(C(F)F)s1
Ans: > 5000 nM
